Listing of entries alongside the reported Emax.
# MEASURED_TARGET: insulin receptor (IR); interaction of IR-Rluc with IRS1-YFP in HEK293 cells (Homo sapiens, UniProt P06213)
# Construct: expressed in transfected cells; host or cells: HEK293 cells, transient co-transfection; plasmids provided by Dr. Tarik Issad (Cochin Institute, Paris)
# Sequence (P06213 28-758 limits assumed): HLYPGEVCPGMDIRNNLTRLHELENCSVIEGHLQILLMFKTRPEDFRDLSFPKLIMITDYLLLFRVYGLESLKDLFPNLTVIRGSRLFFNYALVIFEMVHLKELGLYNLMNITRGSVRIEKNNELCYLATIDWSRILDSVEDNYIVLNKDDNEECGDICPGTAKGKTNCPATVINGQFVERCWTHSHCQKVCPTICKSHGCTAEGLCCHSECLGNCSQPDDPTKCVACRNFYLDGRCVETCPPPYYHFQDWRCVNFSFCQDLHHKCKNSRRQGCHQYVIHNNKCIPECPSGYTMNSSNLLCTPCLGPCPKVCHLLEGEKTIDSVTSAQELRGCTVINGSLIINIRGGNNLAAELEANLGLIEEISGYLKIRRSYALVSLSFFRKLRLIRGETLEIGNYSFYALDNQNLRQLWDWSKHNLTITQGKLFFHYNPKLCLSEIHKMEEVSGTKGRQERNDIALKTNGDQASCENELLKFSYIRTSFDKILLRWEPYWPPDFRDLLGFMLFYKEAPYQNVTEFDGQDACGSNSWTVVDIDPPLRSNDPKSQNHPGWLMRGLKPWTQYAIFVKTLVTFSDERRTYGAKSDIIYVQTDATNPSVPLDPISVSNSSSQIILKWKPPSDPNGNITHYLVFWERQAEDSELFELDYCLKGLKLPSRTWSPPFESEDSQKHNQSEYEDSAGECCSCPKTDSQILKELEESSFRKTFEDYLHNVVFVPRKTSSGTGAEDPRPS
# Sequence (P06213 763-1382 limits assumed): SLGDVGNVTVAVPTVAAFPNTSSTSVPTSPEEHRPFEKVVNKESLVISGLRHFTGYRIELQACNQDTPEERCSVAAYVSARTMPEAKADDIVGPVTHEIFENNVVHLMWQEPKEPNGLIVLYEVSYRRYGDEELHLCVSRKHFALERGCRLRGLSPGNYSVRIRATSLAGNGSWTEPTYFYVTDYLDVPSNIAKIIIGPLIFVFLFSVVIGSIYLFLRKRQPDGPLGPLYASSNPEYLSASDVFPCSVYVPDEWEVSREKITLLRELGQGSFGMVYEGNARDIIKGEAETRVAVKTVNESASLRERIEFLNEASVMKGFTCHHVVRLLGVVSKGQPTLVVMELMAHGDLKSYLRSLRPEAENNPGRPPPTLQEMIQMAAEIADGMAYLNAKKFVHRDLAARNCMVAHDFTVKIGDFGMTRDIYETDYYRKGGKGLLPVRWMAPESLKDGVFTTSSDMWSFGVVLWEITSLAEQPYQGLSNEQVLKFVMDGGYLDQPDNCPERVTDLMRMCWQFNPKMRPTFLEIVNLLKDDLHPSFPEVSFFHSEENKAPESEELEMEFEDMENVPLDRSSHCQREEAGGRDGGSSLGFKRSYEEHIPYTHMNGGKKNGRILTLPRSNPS
# ASSAY_OVERVIEW: BRET assay of IR activation (IR-Rluc/IRS1-YFP), single treatment, dose-response
# Assay type: cell-based
# STUDY_CONDITIONS: HEK293, read-out: BRET, % of the maximal response of insulin, Average, peptide 0.005 mg/ml; HEK293, 1 hour, 37°C; minimal data set for Figure 1, average
Residues, ends and D or L forms follow the SMILES beside them.
Please give a number only; it is taken to be in %.

Solved entries:
COMPOUND	MEASUREMENT_LABEL	ENDPOINT_UNIT	RECORDED_RESULT
CC(C)C[C@H](N)C(=O)N1CCC[C@H]1C(=O)N[C@H](C(=O)N1CCC[C@H]1C(=O)N[C@@H](CCC(N)=O)C(=O)O)C(C)C [Peptide P3, LPVPQ] (H-LPVPQ-OH; N-terminus and C-terminus assumed)	Emax	%	11
CC[C@H](C)[C@H](NC(=O)[C@@H]1CCCN1C(=O)[C@@H](N)Cc1ccc(O)cc1)C(=O)O [Peptide P9, YPI] (H-Tyr-Pro-Ile-OH; N-terminus and C-terminus assumed)	Emax	%	14.7
CC(C)[C@H](N)C(=O)N1CCC[C@H]1C(=O)N[C@@H](Cc1ccccc1)C(=O)O [Peptide P7, VPF] (H-Val-Pro-Phe-OH; N-terminus and C-terminus assumed)	Emax	%	26.1
CC(C)C[C@H](NC(=O)[C@H](Cc1ccccc1)NC(=O)[C@@H]1CCCN1C(=O)[C@H](CCCNC(=N)N)NC(=O)[C@@H](N)CC(C)C)C(=O)O [Peptide P1, LRPFL] (H-LRPFL-OH)	Emax	%	16.5
CSCC[C@H](NC(=O)[C@H](Cc1c[nH]cn1)NC(=O)[C@H](CS)NC(=O)[C@@H]1CCCN1C(=O)[C@H](CC(C)C)NC(=O)[C@@H]1CCCN1C(=O)[C@@H]1CCCN1C(=O)[C@H](CC(C)C)NC(=O)[C@H](CS)NC(=O)[C@H](CS)NC(=O)[C@H](C)NC(=O)[C@@H](NC(=O)[C@H](C)NC(=O)[C@@H]1CCCN1)C(C)C)C(=O)O [Peptide P2] (H-PAVACCLPPLPCHM-OH; N-terminus and C-terminus assumed)	Emax	%	19.9

Turning now to a further record.
Which Emax value belongs to CC(C)C[C@H](N)C(=O)N1CCC[C@H]1C(=O)N[C@H](C(=O)N1CCC[C@H]1C(=O)O)C(C)C [Peptide P6, LPVP] (H-LPVP-OH; N-terminus and C-terminus assumed) ? 25.4

---

# MEASURED_TARGET: insulin receptor (IR); interaction of IR-Rluc with IRS1-YFP in HEK293 cells (Homo sapiens, UniProt P06213)
# Construct: expressed in transfected cells; host or cells: HEK293 cells, transient co-transfection; plasmids provided by Dr. Tarik Issad (Cochin Institute, Paris)
# ASSAY_OVERVIEW: BRET assay of IR activation (IR-Rluc/IRS1-YFP), single treatment, dose-response
# Assay type: cell-based
# STUDY_CONDITIONS: HEK293, read-out: BRET, % of the maximal response of insulin, Average, peptide 0.05 mg/ml; HEK293, 1 hour, 37°C; minimal data set for Figure 1, average
Residues, ends and D or L forms follow the SMILES beside them.
Listing of entries alongside the reported Emax.
Please give a number only; it is taken to be in %.

Solved entries:
COMPOUND	MEASUREMENT_LABEL	RECORDED_RESULT
CC(C)C[C@H](NC(=O)[C@H](Cc1ccccc1)NC(=O)[C@@H]1CCCN1C(=O)[C@H](CCCNC(=N)N)NC(=O)[C@@H](N)CC(C)C)C(=O)O [Peptide P1, LRPFL] (H-LRPFL-OH)	Emax	43
CC(C)C[C@H](N)C(=O)N1CCC[C@H]1C(=O)N[C@H](C(=O)N1CCC[C@H]1C(=O)N[C@@H](CCC(N)=O)C(=O)O)C(C)C [Peptide P3, LPVPQ] (H-LPVPQ-OH; N-terminus and C-terminus assumed)	Emax	48.8
CSCC[C@H](NC(=O)[C@H](Cc1c[nH]cn1)NC(=O)[C@H](CS)NC(=O)[C@@H]1CCCN1C(=O)[C@H](CC(C)C)NC(=O)[C@@H]1CCCN1C(=O)[C@@H]1CCCN1C(=O)[C@H](CC(C)C)NC(=O)[C@H](CS)NC(=O)[C@H](CS)NC(=O)[C@H](C)NC(=O)[C@@H](NC(=O)[C@H](C)NC(=O)[C@@H]1CCCN1)C(C)C)C(=O)O [Peptide P2] (H-PAVACCLPPLPCHM-OH; N-terminus and C-terminus assumed)	Emax	47.3
CC[C@H](C)[C@H](NC(=O)[C@@H]1CCCN1C(=O)[C@@H](N)Cc1ccc(O)cc1)C(=O)O [Peptide P9, YPI] (H-Tyr-Pro-Ile-OH; N-terminus and C-terminus assumed)	Emax	29.3
CC(C)C[C@H](N)C(=O)N1CCC[C@H]1C(=O)N[C@H](C(=O)N1CCC[C@H]1C(=O)O)C(C)C [Peptide P6, LPVP] (H-LPVP-OH; N-terminus and C-terminus assumed)	Emax	44.5

Which Emax value belongs to CC(C)[C@H](N)C(=O)N1CCC[C@H]1C(=O)N[C@@H](Cc1ccccc1)C(=O)O [Peptide P7, VPF] (H-Val-Pro-Phe-OH; N-terminus and C-terminus assumed) ? 44.3
